EXPERIMENTAL TARGET: Cathepsin B (Homo sapiens, UniProt P07858)
TEST NAME: Inhibition of human cathepsin B
MEASUREMENT KIND: Ki (nM)

Worked examples follow.
>>> reported_result("CCC(NC(=O)C(CC(C)C)NC(=O)OCc1ccccc1)C(=O)C(=O)NCc1cc(OC)cc(OC)c1 (stereo not given)")
1800
>>> reported_result("CCC(NC(=O)C(CC(C)C)NC(=O)OCc1ccccc1)C(=O)C(=O)NCCc1ccccc1 (stereo not given)")
1300
>>> reported_result("CCNC(=O)C(=O)C(Cc1ccccc1)NC(=O)C(CC(C)C)NC(=O)OCc1ccccc1 (stereo not given)")
6000

P: CCC(NC(=O)C(CC(C)C)NC(=O)OCc1ccccc1)C(=O)C(=O)NCCN1CCOCC1 (stereo not given)
Q: CCC(NC(=O)C(CC(C)C)NC(=O)OCc1ccccc1)C(=O)C(=O)NCc1cccnc1 (stereo not given)
R: CCC(NC(=O)C(CC(C)C)NC(=O)OCc1ccccc1)C(=O)C(=O)NCC(O)c1ccccc1 (stereo not given)
Lookup: Put the items in sequence by Ki, from largest down. Response format: the labels, sorted as the prompt asks.
Found: P, Q, R

I: CCC(NC(=O)C(CC(C)C)NC(=O)OCc1ccccc1)C(=O)C(=O)NCc1ccccn1 (stereo not given)
II: CCC(NC(=O)C(CC(C)C)NC(=O)OCc1ccccc1)C(=O)C(=O)NCc1ccncc1 (stereo not given)
Lookup: Recorded Ki values differ for I and II ; which one is higher? Reply briefly: the label of your chosen item.
Found: II
(II: 6400 nM, I: 3000 nM)

I: CC(C)CC(NC(=O)C(c1ccccc1)c1ccccc1)C(=O)NC(Cc1ccccc1)C(=O)C(=O)NCc1ccccn1 (stereo not given)
II: CC(C)CC(NC(=O)OCc1ccccc1)C(=O)NC(Cc1ccccc1)C(=O)C(=O)NCc1ccccn1 (stereo not given)
Lookup: Recorded Ki values differ for I and II ; which one is higher? Reply briefly: the label of your chosen item.
Found: I
(I: 2200 nM, II: 800 nM)

====

EXPERIMENTAL TARGET: Calpain-1 catalytic subunit (Homo sapiens, UniProt P07384)
Sequence (P07384 whole entry): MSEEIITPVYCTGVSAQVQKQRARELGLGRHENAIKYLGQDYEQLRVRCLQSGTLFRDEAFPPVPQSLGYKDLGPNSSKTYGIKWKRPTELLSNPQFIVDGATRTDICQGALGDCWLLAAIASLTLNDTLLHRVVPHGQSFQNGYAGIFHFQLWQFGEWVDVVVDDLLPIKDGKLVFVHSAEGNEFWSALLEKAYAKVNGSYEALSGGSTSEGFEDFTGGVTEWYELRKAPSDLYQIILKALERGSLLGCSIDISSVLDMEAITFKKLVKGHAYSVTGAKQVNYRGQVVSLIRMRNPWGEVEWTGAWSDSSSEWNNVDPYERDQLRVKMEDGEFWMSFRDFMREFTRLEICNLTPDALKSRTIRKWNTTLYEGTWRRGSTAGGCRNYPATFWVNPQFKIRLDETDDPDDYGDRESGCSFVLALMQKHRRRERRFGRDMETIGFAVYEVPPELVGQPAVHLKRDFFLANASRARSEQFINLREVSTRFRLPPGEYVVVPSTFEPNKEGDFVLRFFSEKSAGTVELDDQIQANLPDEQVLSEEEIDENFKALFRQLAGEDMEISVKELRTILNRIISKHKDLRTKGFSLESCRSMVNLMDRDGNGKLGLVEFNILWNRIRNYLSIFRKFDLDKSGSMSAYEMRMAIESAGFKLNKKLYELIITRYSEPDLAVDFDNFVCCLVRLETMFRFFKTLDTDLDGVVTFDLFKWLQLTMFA
TEST NAME: Inhibition of the cysteine protease human Calpain 1
MEASUREMENT KIND: Ki (nM)

>>> reported_result("CCC(NC(=O)C(CC(C)C)NC(=O)C(c1ccccc1)c1ccccc1)C(=O)C(=O)NCC(O)c1ccccc1 (stereo not drawn)")
750

P: CC(C)CC(NC(=O)OCc1ccccc1)C(=O)NC(Cc1ccccc1)C(=O)C(=O)NCC(O)c1ccc(OCc2ccccc2)c(OCc2ccccc2)c1 (stereo not drawn)
Q: CCC(NC(=O)C(CC(C)C)NC(=O)OCc1ccccc1)C(=O)C(=O)NCCCN1CCc2ccccc2C1 (stereo not drawn)
Lookup: Sorting ascending by Ki, which comes first: P or Q ? Reply briefly: the label of your chosen item.
Found: Q

====

Cathepsin B (Bos taurus, UniProt P07688): reported Ki for various compounds.
MEASUREMENT KIND: Ki (nM)

>>> reported_result("CCC(NC(=O)C(CC(C)C)NC(=O)OCc1ccccc1)C(=O)C(=O)NCCCN1CCCc2ccccc21 (centres undefined)")
94
>>> reported_result("CCOC(CNC(=O)C(=O)C(CC)NC(=O)C(CC(C)C)NC(=O)OCc1ccccc1)OCC (centres undefined)")
110

I: CCC(NC(=O)C(CC(C)C)NC(=O)OCc1ccccc1)C(=O)C(=O)NCC(O)c1ccc(OCc2ccccc2)c(OCc2ccccc2)c1 (centres undefined)
II: CCC(NC(=O)C(CC(C)C)NC(=O)OCc1ccccc1)C(=O)C(=O)NCC(O)c1ccc(OC)cc1 (centres undefined)
Lookup: Recorded Ki values differ for I and II ; which one is higher? Reply briefly: the label of your chosen item.
Found: I
(I: 320 nM, II: 120 nM)
